B1: SNAP-FZD5 (Frizzled 5), wild type [human] / DEP_(414–507)-GFP, minimal DEP domain of DVL2 [human] (parent)
chain 1: GRGLSVHTDMASVTKAMAAPESGLEVRDRMWLKITIPNAFLGSDVVDWLYHHVEGFPERREARKYASGLLKAGLIRHTVNKITFSEQCYYVFGD
chain 2: ASKAPVCQEITVPMCRGIGYNLTHMPNQFNHDTQDEAGLEVHQFWPLVEIQCSPDLRFFLCSMYTPICLPDYHKPLPPCRSVCERAKAGCSPLMRQYGFAWPERMSCDRLPVLGRDAEVLCMDYNRSEATTAPPRPFPAKPTLPGPPGAPASGGECPAGGPFVCKCREPFVPILKESHPLYNKVRTGQVPNCAVPCYQPSFSADERTFATFWIGLWSVLCFISTSTTVATFLIDMERFRYPERPIIFLSACYLCVSLGFLVRLVVGHASVACSREHNHIHYETTGPALCTIVFLLVYFFGMASSIWWVILSLTWFLAAGMKWGNEAIAGYAQYFHLAAWLIPSVKSITALALSSVDGDPVAGICYVGNQNLNSLRGFVLGPLVLYLLVGTLFLLAGFVSLFRIRSVIKQGGTKTDKLEKLMIRIGIFTLLYTVPASIVVACYLYEQHYRESWEAALTCACPGHDTGQPRAKPEYWVLMLKYFMCLVVGITSGVWIWSGKTVESWRRFTSRCCCRPRRGHKSGGAMAAGDYPEASAALTGRTGPPGPAATYHKQVSLSHV

# Variants of: B1
# Protocol Notes: FZD5-dependent PM recruitment of DEP-GFP (cell scoring)
# Test Settings: with DEP_(414–507)-GFP, 100 cells scored in each case, parent: 52, read off a plot
Measured Property: screen value

Examples with their reported screen value follow.
mutation_notation="chain 2 L417A" measured_property="screen value" result="5 % of cells"
mutation_notation="chain 2 R237A" measured_property="screen value" result="12 % of cells"
mutation_notation="chain 2 Y240A" measured_property="screen value" result="8 % of cells"
mutation_notation="chain 2 R510A" measured_property="screen value" result="49 % of cells"
mutation_notation="chain 2 G323T" measured_property="screen value" result="56 % of cells"

Fill blank: measured screen value of the variant chain 2 R506A is ____.
49 % of cells

Endpoint output: screen value of chain 2 T230A . Value?
1 % of cells

Need screen value, item chain 2 S503A
50 % of cells

// lookup screen value for chain 2 S497A
60 % of cells

Any idea what its screen value is? The variant is chain 2 W504A
3 % of cells

Item chain 2 T500A has what recorded screen value?
6 % of cells
